Data credit: ChEMBL document CHEMBL4425113

study.target: Cannabinoid receptor 2 (Homo sapiens, UniProt P34972)
Sequence (P34972 whole entry): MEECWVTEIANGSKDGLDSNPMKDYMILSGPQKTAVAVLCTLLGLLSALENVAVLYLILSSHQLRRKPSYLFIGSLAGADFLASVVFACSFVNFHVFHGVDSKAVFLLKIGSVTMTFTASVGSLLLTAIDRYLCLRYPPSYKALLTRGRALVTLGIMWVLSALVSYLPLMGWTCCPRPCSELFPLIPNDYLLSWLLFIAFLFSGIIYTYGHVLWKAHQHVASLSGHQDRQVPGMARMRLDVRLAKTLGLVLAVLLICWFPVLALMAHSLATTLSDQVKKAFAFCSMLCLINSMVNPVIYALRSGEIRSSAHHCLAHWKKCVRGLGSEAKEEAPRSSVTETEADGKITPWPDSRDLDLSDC
protocol.summary: Displacement of [3H]-CP55940 from human CB2 receptor expressed in HEK293 cell membranes after 90 mins by liquid scintillation counting method
pKi: −log10 of the molar value.
property: pKi

1. CCCCCCC(C)(C)c1cc(OCCO)c2c(c1)OC(C)(C)c1cn(CC)nc1-2 ... 6.68
2. CCCCCCC(C)(C)c1cc(OCc2ccccc2)c2c(c1)OC(C)(C)c1cn(CC)nc1-2 ... 6.67
3. CCCCCCC(C)(C)c1cc(OC)c2c(c1)OC(C)(C)c1cnn(-c3ccc(Cl)cc3Cl)c1-2 ... 5.83
4. CCCCCCC(C)(C)c1cc(OCCO)c2c(c1)OC(C)(C)c1cn(C)nc1-2 ... 7.40
5. CCCCCCC(C)(C)c1cc(OC)c2c(c1)OC(C)(C)c1cnn(CC)c1-2 ... 6.80
6. CCCCCCC(C)(C)c1cc(OC)c2c(c1)OC(C)(C)c1cn(CC)nc1-2 ... 7.03
7. CCCCCCC(C)(C)c1cc(OCCCO)c2c(c1)OC(C)(C)c1cn(CC)nc1-2 ... 7.01

---

study.target: Cannabinoid receptor 1 (Homo sapiens)
Sequence (P21554 whole entry): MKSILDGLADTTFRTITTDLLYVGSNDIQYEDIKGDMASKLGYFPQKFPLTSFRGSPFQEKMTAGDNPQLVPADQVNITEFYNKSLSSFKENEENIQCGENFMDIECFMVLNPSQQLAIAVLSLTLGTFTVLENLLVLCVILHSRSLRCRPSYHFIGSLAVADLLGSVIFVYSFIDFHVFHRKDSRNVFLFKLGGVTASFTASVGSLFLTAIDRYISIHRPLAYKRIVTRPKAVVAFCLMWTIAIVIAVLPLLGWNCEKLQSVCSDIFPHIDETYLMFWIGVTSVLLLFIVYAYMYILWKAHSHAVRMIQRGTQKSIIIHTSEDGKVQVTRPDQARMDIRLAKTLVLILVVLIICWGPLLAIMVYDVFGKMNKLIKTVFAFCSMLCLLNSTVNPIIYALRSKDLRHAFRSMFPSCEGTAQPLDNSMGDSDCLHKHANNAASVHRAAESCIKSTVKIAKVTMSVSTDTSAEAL
protocol.summary: biochemical
Format: cell-based, HEK293
pKi: −log10 of the molar value.
property: pKi

1. CCCCCCC(C)(C)c1cc(OCCCBr)c2c(c1)OC(C)(C)c1cn(C)nc1-2 ... 5.83
2. CCCCCCC(C)(C)c1cc(OC)c2c(c1)OC(C)(C)c1cnn(-c3ccc(Cl)cc3Cl)c1-2 ... 5.77
3. CCCCCCC(C)(C)c1cc(O)c2c(c1)OC(C)(C)c1cnoc1-2 ... 7.81
4. CCCCCCC(C)(C)c1cc(O)c2c(c1)OC(C)(C)c1cnn(C3CCCCC3)c1-2 ... 5.94

---

Organism: Homo sapiens
protocol.summary: Selectivity ratio of Ki for human CB1 receptor to Ki for human CB2 receptor
The reader will find reported Ratio Ki values listed item by item below.
property: Ratio Ki

1. CCCCCCC(C)(C)c1cc(OCCCO)c2c(c1)OC(C)(C)c1cn[nH]c1-2 ... 17.3
2. CCCCCCC(C)(C)c1cc(OCCCBr)c2c(c1)OC(C)(C)c1cn(C)nc1-2 ... 19.1
3. CCCCCCC(C)(C)c1cc(O)c2c(c1)OC(C)(C)c1cnoc1-2 ... 2.9
4. CCCCCCC(C)(C)c1cc(OCc2ccccc2)c2c(c1)OC(C)(C)c1cn(CC)nc1-2 ... 3.1
5. CCCCCCC(C)(C)c1cc(OCCO)c2c(c1)OC(C)(C)c1cn[nH]c1-2 ... 18
6. CCCCCCC(C)(C)c1cc(OC)c2c(c1)OC(C)(C)c1cnn(CC)c1-2 ... 31.6
7. CCCCCCC(C)(C)c1cc(OCCCO)c2c(c1)OC(C)(C)c1cnn(CC)c1-2 ... 3.6

---

Species: Homo sapiens
protocol.summary: Selectivity ratio of Ki for human CB1 receptor to Ki for human CB2 receptor
The reader will find reported Ratio Ki values listed item by item below.
property: Ratio Ki

1. CCCCCCC(C)(C)c1cc(OC)c2c(c1)OC(C)(C)c1cn(C)nc1-2 ... 62.6
2. CCCCCCC(C)(C)c1cc(OCCCO)c2c(c1)OC(C)(C)c1cnoc1-2 ... 5.1
3. CCCCCCC(C)(C)c1cc(OCCO)c2c(c1)OC(C)(C)c1cn(CC)nc1-2 ... 31
4. CCCCCCC(C)(C)c1cc(OCCO)c2c(c1)OC(C)(C)c1cn(C)nc1-2 ... 27.2
5. CCCCCCC(C)(C)c1cc(OCc2ccccc2)c2c(c1)OC(C)(C)c1cnn(CC)c1-2 ... 2
6. CCCCCCC(C)(C)c1cc(OC)c2c(c1)OC(C)(C)c1cn[nH]c1-2 ... 3.1
7. CCCCCCC(C)(C)c1cc(OCCCBr)c2c(c1)OC(C)(C)c1cn(CC)nc1-2 ... 7.5
8. CCCCCCC(C)(C)c1cc(O)c2c(c1)OC(C)(C)c1cnn(-c3ccc(Cl)c(Cl)c3)c1-2 ... 1.9
9. CCCCCCC(C)(C)c1cc(O)c2c(c1)OC(C)(C)c1cn(CCO)nc1-2 ... 1.4
10. CCCCCCC(C)(C)c1cc(OC)c2c(c1)OC(C)(C)c1cn(CC)nc1-2 ... 31.8
11. CCCCCCC(C)(C)c1cc(OCc2ccccc2)c2c(c1)OC(C)(C)c1cn(C)nc1-2 ... 3.3
12. CCCCCCC(C)(C)c1cc(O)c2c(c1)OC(C)(C)c1cn(CO)nc1-2 ... 3.7
13. CCCCCCC(C)(C)c1cc(O)c2c(c1)OC(C)(C)c1cnn(C3CCCCC3)c1-2 ... 21.5
14. CCCCCCC(C)(C)c1cc(O)c2c(c1)OC(C)(C)c1cnn(-c3cccc(OC)c3)c1-2 ... 11.5

---

study.target: UniProt:P34972
protocol.summary: Displacement of [3H]-CP55940 from human CB2 receptor expressed in HEK293 cell membranes after 90 mins by liquid scintillation counting method
pKi: −log10 of the molar value.
The reader will find reported pKi values listed item by item below.
property: pKi

1. CCCCCCC(C)(C)c1cc2c(c3c1CCCO3)-c1c(cnn1CC)C(C)(C)O2 ... 6.25
2. CCCCCCC(C)(C)c1cc(OCCCO)c2c(c1)OC(C)(C)c1cn(C)nc1-2 ... 6.44
3. CCCCCCC(C)(C)c1cc(O)c2c(c1)OC(C)(C)c1cn(CCO)nc1-2 ... 7.40
4. CCCCCCC(C)(C)c1cc(OCCCBr)c2c(c1)OC(C)(C)c1cn(CC)nc1-2 ... 7.06
5. CCCCCCC(C)(C)c1cc(OCC)c2c(c1)OC(C)(C)c1cnn(-c3ccc(Cl)c(Cl)c3)c1-2 ... 5.45
6. CCCCCCC(C)(C)c1cc(O)c2c(c1)OC(C)(C)c1cnn(CCO)c1-2 ... 6.44
7. CCCCCCC(C)(C)c1cc(OCCO)c2c(c1)OC(C)(C)c1cn[nH]c1-2 ... 8.44

---

study.target: Cannabinoid receptor 2 (Homo sapiens, UniProt P34972)
protocol.summary: Agonist activity at human CB2 receptor expressed in HEK293 cell membranes assessed as induction of [35S]-GTPgammaS binding after 60 mins by liquid scintillation spectrometric method
Format: functional
property: Emax (%)

1) CCCCCCC(C)(C)c1cc(OCCCO)c2c(c1)OC(C)(C)c1cnoc1-2 ... 96
2) CCCCCCC(C)(C)c1cc(O)c2c(c1)OC(C)(C)c1cnoc1-2 ... 114
3) CCCCCCC(C)(C)c1cc(OC)c2c(c1)OC(C)(C)c1cnoc1-2 ... 98
4) CCCCCCC(C)(C)c1cc(OCCO)c2c(c1)OC(C)(C)c1cn[nH]c1-2 ... 110
5) CCCCCCC(C)(C)c1cc(OC)c([C@H]2C=C(CO)[C@@H]3C[C@H]2C3(C)C)c(OC)c1 ... 91

---

study.target: UniProtKB P21554
protocol.summary: biochemical
Format: cell-based, HEK293
property: log10 Ki (log10 of the value in nM)

1. CCCCCCC(C)(C)c1cc(OCCO)c2c(c1)OC(C)(C)c1cn[nH]c1-2 ... 1.81
2. CCCCCCC(C)(C)c1cc(OCCCO)c2c(c1)OC(C)(C)c1cnoc1-2 ... 2.52
3. CCCCCCC(C)(C)c1cc(OC)c2c(c1)OC(C)(C)c1cn(CC)nc1-2 ... 3.47
4. CCCCCCC(C)(C)c1cc(O)c2c(c1)OC(C)(C)c1cnn(-c3cccc(OC)c3)c1-2 ... 3.81
5. CCCCCCC(C)(C)c1cc(OCc2ccccc2)c2c(c1)OC(C)(C)c1cn[nH]c1-2 ... 1.35
6. CCCCCCC(C)(C)c1cc(OC)c2c(c1)OC(C)(C)c1cnn(-c3ccc(Cl)c(Cl)c3)c1-2 ... 3.37
7. CCCCCCC(C)(C)c1cc(OCCO)c2c(c1)OC(C)(C)c1cn(C)nc1-2 ... 3.04
8. CCCCCCC(C)(C)c1cc(OCCO)c2c(c1)OC(C)(C)c1cn(CC)nc1-2 ... 3.81
9. CCCCCCC(C)(C)c1cc(OC)c2c(c1)OC(C)(C)c1cn(C)nc1-2 ... 3.62
10. CCCCCCC(C)(C)c1cc(OCCCBr)c2c(c1)OC(C)(C)c1cn(CC)nc1-2 ... 2.82
11. CCCCCCC(C)(C)c1cc(OCc2ccccc2)c2c(c1)OC(C)(C)c1cn(CC)nc1-2 ... 2.83
12. CCCCCCC(C)(C)c1cc(OCCCO)c2c(c1)OC(C)(C)c1cn[nH]c1-2 ... 2.65
13. CCCCCCC(C)(C)c1cc(O)c2c(c1)OC(C)(C)c1cn(CO)nc1-2 ... 2.34
